# Lookup of reported Ki keyed by entry
target: β2-AR (Homo sapiens, UniProt P07550); test: radioligand binding assay, β2-AR, [3H]CGP12177; conditions: radioligand [3H]CGP12177; values given as a range are from screening experiments with a low number of repeats; read-out: Ki β2-AR [3H]CGP12177
Sequence (P07550 whole entry): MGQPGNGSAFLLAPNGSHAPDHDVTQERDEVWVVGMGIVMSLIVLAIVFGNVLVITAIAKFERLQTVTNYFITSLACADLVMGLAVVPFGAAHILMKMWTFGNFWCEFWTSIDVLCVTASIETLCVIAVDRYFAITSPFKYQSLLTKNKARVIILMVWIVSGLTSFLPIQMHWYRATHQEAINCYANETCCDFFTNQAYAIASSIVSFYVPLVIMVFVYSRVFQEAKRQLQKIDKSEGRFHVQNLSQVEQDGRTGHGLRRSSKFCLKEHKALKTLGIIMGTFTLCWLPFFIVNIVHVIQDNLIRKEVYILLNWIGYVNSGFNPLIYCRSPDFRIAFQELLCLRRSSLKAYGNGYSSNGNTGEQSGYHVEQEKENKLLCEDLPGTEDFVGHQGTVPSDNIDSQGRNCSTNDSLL
Counter-ions that a name gives are not always drawn.

INSERT INTO results (compound, measured_on, observed_value) VALUES
  ('CC(C)(C)CN[C@@H]1CCc2c(ccc(O)c2O)[C@H]1O', 'β2-AR (Homo sapiens, UniProt P07550)', '0.25 to 0.7 µM'),
  ('COCC(COC)N[C@@H]1CCc2c(ccc(O)c2O)[C@H]1O', 'β2-AR (Homo sapiens, UniProt P07550)', '0.6 to 1.5 µM'),
  ('CC(C)N[C@@H]1CCc2cc(O)c(O)cc2[C@H]1O (relative stereo) [JS 3-89, trifluoroacetate]', 'β2-AR (Homo sapiens, UniProt P07550)', '> 50 µM'),
  ('Oc1ccc2c(c1O)CC[C@@H](NC1COC1)[C@@H]2O', 'β2-AR (Homo sapiens, UniProt P07550)', '0.6 to 1.5 µM'),
  ('C[Si](C)(C)CN[C@@H]1CCc2c(ccc(O)c2O)[C@H]1O', 'β2-AR (Homo sapiens, UniProt P07550)', '0.2 to 0.5 µM');

I'd like to know its Ki. The compound in question is Oc1ccc2c(c1O)CC[C@@H](NCC1CCC1)[C@@H]2O
0.17 µM

Reported Ki for Oc1ccc2c(c1O)CC[C@@H](NCCF)[C@@H]2O : what is it?
0.28 µM

Given the compound CNC1CCc2c(ccc(O)c2O)C1 (racemic) , what is its reported Ki?
46 µM

---

target: α2A-AR (Homo sapiens)
pKi: −log10 of the molar value.
Measure name: pKi

INSERT INTO results (mol_smiles, observed_value) VALUES
  ('CC(C)(C)CN[C@@H]1CCc2c(ccc(O)c2O)[C@H]1O', '4.52 to 4.82'),
  ('C[Si](C)(C)CN[C@@H]1CCc2c(ccc(O)c2O)[C@H]1O', '4.82 to 5.10');

Now turn to the next molecule.
Kindly state the measured pKi obtained for COCC(COC)N[C@@H]1CCc2c(ccc(O)c2O)[C@H]1O with α2A-AR (Homo sapiens).
4.92 to 5.22

---

biological target: β2-AR (Homo sapiens); assay: β-arrestin-2 recruitment assay at β2-AR; assay type: cell-based; conditions: n.d. = could not be determined because of lack of activity; ranges from screening experiments with a low number of repeats; read-out: β-arrestin-2 recruitment β2-AR EC50
Sequence (P07550 whole entry): as above
Sequence (P32121 whole entry partner): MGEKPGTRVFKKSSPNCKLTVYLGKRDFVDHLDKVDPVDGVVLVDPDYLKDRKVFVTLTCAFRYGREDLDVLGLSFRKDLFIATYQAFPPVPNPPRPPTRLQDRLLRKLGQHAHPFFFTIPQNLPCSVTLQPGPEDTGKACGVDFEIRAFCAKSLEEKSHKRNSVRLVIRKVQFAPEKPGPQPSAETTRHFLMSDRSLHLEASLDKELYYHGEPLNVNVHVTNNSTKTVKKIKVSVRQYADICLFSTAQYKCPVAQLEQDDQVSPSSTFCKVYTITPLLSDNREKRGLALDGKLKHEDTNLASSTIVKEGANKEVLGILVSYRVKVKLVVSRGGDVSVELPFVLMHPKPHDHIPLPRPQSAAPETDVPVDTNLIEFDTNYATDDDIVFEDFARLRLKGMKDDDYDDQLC
Listing: EC50 of selected compounds

INSERT INTO assay_data (mol_smiles, measured_on, observed_value) VALUES
  ('Oc1ccc2c(c1O)CC[C@@H](NC1COC1)[C@@H]2O', 'β2-AR (Homo sapiens)', '200 to 400 nM'),
  ('COCC(COC)N[C@@H]1CCc2c(ccc(O)c2O)[C@H]1O', 'β2-AR (Homo sapiens)', '500 to 1000 nM');

Would you mind telling me what EC50 value was observed for C[Si](C)(C)CN[C@@H]1CCc2c(ccc(O)c2O)[C@H]1O ?
120 to 250 nM

---

biological target: β1-AR (Homo sapiens); assay: β-arrestin-2 recruitment assay at β1-AR; type: cell-based; details: relative to norepinephrine
Sequence (P08588 whole entry, one chain of several): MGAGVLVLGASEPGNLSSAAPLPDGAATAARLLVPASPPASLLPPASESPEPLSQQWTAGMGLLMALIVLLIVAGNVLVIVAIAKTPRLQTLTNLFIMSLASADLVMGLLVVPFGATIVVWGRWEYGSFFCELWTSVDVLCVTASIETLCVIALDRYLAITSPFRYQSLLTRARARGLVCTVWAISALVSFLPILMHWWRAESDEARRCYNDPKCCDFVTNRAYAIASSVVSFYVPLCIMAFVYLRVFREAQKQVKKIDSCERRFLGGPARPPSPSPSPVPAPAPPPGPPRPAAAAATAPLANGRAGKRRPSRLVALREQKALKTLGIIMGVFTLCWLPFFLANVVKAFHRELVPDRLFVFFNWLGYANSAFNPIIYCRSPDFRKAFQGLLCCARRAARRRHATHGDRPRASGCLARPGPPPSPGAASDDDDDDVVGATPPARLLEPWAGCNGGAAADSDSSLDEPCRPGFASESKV
Counter-ions that a name gives are not always drawn.
Attribute: β-arrestin-2 recruitment β1-AR Emax

// worked examples, β-arrestin-2 recruitment β1-AR Emax included
INSERT INTO measurements (compound, measure_name, observed_value) VALUES
  ('NC1CCc2c(ccc(O)c2O)C1 (single isomer, unassigned) [AS LM28]', 'β-arrestin-2 recruitment β1-AR Emax', '<10 % norepinephrine'),
  ('CC(C)N[C@@H]1CCc2c(ccc(O)c2O)[C@H]1O [AS424A, TFA]', 'β-arrestin-2 recruitment β1-AR Emax', '82 % norepinephrine'),
  ('C[Si](C)(C)CN[C@@H]1CCc2c(ccc(O)c2O)[C@H]1O', 'β-arrestin-2 recruitment β1-AR Emax', '40 % norepinephrine');

Name the recorded β-arrestin-2 recruitment β1-AR Emax for COCC(COC)N[C@@H]1CCc2c(ccc(O)c2O)[C@H]1O .
35 % norepinephrine
